biological target: HLA-A*1101 (human); assay: iTopia off-rate
Measured quantity: t1/2
Numbers only.

As a guide, the following entries are already answered.
{"Binder": "LQLAAELGK [cdr2 28-36 LQLAAELGK]", "Measured quantity": "t1/2", "Measurement": 1}
{"Binder": "PPEYKALFK [cdr2 419-427 PPEYKALFK]", "Measured quantity": "t1/2", "Measurement": 0.31}
{"Binder": "SPTTPPEYK [cdr2 415-423 SPTTPPEYK]", "Measured quantity": "t1/2", "Measurement": 1.78}
{"Binder": "AQLSLERQK [cdr2 207-215 AQLSLERQK]", "Measured quantity": "t1/2", "Measurement": 1.4}

List t1/2 for every entry below, keeping the order given.
1. VYDHVFAEK [cdr2 172-180 VYDHVFAEK]
2. VQTSRAAAK [cdr2 379-387 VQTSRAAAK]
3. SGWELASVN [cdr2 401-409 SGWELASVN]
4. GQGRRSPGK [cdr2 140-148 GQGRRSPGK]

[0.7, 1.5, 0.8, 2.8]

List t1/2 for every entry below, keeping the order given.
1. KQRGISLLH [cdr2 339-347 KQRGISLLH]
2. QLGATGAYR [cdr2 236-244 QLGATGAYR]

1. 0.44
2. 0.2
